Recorded values, source patent US20060167057A1.

Biological target: L1 transport system (large neutral amino acid carrier, L1-system carrier) (Rattus norvegicus)
Construct: functionality of their endogenous transporters such as the L1-system carrier; endogenous in cells; host or cells: rat primary cerebrovascular (brain microcapillary) endothelial cells, RBEC
Assay: Competitive binding assay to the brain L1 transport system (L-[U-14C]phenylalanine on rat primary cerebrovascular endothelial cells)
Conditions: 10^−5 M
Result type: Comparison with the Binding of Phenylalanine

- Cc1nc(SCc2ccc(-c3ccc(CC(N)C(=O)O)cc3)cc2)sc1CC(=O)O (stereo not drawn): 0 (X < 0 Rank 0)
- NC(=O)C(N)Cc1cccc(CSc2cncc3c(C(F)(F)F)cccc23)n1 (stereo not drawn): 1 (0 < X < 10 Rank 1)
- NC(Cc1ccc(-c2ccc(CSc3nc4cc([N+](=O)[O-])ccc4[nH]3)cc2)cc1)C(=O)O (stereo not drawn): 1 (0 < X < 10 Rank 1)
- NC(Cc1ccc(-c2ccc(CN3CCN(c4ccc(F)cc4)CC3)cc2)cc1)C(=O)O (stereo not drawn): 1 (0 < X < 10 Rank 1)
- NC(Cc1cccc(CSc2nc3ccccc3c(=O)[nH]2)c1)C(=O)O (stereo not drawn): 1 (0 < X < 10 Rank 1)
- NC(=O)C(N)Cc1cccc(CSc2nnnn2-c2ccccc2)c1 (stereo not drawn): 1 (0 < X < 10 Rank 1)
- Cc1nnc(SCc2cccc(CC(N)C(=O)O)n2)s1 (stereo not drawn): 1 (0 < X < 10 Rank 1)
- O=C(Nc1ccc(-c2ccccc2)cc1)NC(Cc1cccc(CSc2ncc[nH]2)c1)C(=O)O (stereo not drawn): 0 (X < 0 Rank 0)
- NC(Cc1cccc(CSc2nnc[nH]2)n1)C(=O)O (stereo not drawn): 0 (X < 0 Rank 0)

---

A collection of compounds and their measured Comparison with the Binding of Phenylalanine
Biological target: L1 transport system (large neutral amino acid carrier, L1-system carrier) (Rattus norvegicus)
Construct: functionality of their endogenous transporters such as the L1-system carrier; endogenous in cells; host or cells: rat primary cerebrovascular (brain microcapillary) endothelial cells, RBEC
Experiment: Competitive binding assay to the brain L1 transport system (L-[U-14C]phenylalanine on rat primary cerebrovascular endothelial cells)
Settings: 10^−4 M
Result type: Comparison with the Binding of Phenylalanine

• NC(Cc1ccc(-c2ccc(CSc3nc4ccccc4c(=O)[nH]3)cc2)cc1)C(=O)O (centres unmarked) [Compound 155] = 0 (X < 0 Rank 0)
• N[C@@H](Cc1ccccc1)C(=O)NC(Cc1cccc(CSc2cncc3c(C(F)(F)F)cccc23)n1)C(=O)O (some centres unmarked) [Compound 26] = 0 (X < 0 Rank 0)
• NC(Cc1cccc(-c2cccc(Sc3nc4cc([N+](=O)[O-])ccc4s3)c2)c1)C(=O)O (centres unmarked) [Compound 109] = 2 (10 < X < 20 Rank 2)
• NC(Cc1cccc(CSc2nc(-c3ccccc3)c(-c3ccccc3)[nH]2)n1)C(=O)O (centres unmarked) [Compound 148] = 0 (X < 0 Rank 0)
• O=C(Nc1ccc(-c2ccccc2)cc1)NC(Cc1cccc(CSc2nc3ccccc3o2)n1)C(=O)O (centres unmarked) [Compound 63] = 0 (X < 0 Rank 0)
• NC(Cc1ccc(-c2ccc(CSc3ccc4ccccc4n3)cc2)cc1)C(=O)O (centres unmarked) [Compound 159] = 0 (X < 0 Rank 0)
• NC(Cc1cccc(CSc2cncc3c(C(F)(F)F)cccc23)n1)C(=O)O (centres unmarked) [Compound 24] = 0 (X < 0 Rank 0)
• NC(Cc1cccc(CN2CCN(c3ccc(F)cc3)CC2)c1)C(=O)O (centres unmarked) [Compound 75] = 0 (X < 0 Rank 0)
• O=C(Nc1ccc(-c2ccccc2)cc1)NC(Cc1cccc(CSc2nnnn2-c2ccccc2)c1)C(=O)O (centres unmarked) [Compound 54] = 1 (0 < X < 10 Rank 1)
• NC(Cc1cccc(CN2CCN(c3cccc(Cl)c3)CC2)c1)C(=O)O (centres unmarked) [Compound 71] = 0 (X < 0 Rank 0)
• O=C(NC(Cc1cccc(CSc2nnc[nH]2)n1)C(=O)O)NC(c1ccccc1)c1ccccc1 (centres unmarked) [Compound 37] = 2 (10 < X < 20 Rank 2)
• N[C@@H](Cc1ccccc1)C(=O)NC(Cc1cccc(CSc2nc3ccccc3o2)n1)C(=O)O (some centres unmarked) [Compound 32] = 0 (X < 0 Rank 0)
• NC(Cc1cccc(CSc2nnnn2-c2ccc(O)cc2)c1)C(=O)O (centres unmarked) [Compound 3] = 3 (X > 20 Rank 3)
• Cc1nnc(SCc2cccc(CC(N)C(=O)O)c2)s1 (centres unmarked) [Compound 81] = 2 (10 < X < 20 Rank 2)
• COc1ccc2[nH]c(Sc3cccc(-c4cccc(CC(N)C(=O)O)c4)c3)nc2c1 (centres unmarked) [Compound 76] = 0 (X < 0 Rank 0)
• COc1ccc2[nH]c(SCc3ccc(-c4ccc(CC(N)C(=O)O)cc4)cc3)nc2c1 (centres unmarked) [Compound 91] = 1 (0 < X < 10 Rank 1)
• Cc1nnc(SCc2ccc(-c3ccc(CC(N)C(=O)O)cc3)cc2)s1 (centres unmarked) [Compound 126] = 0 (X < 0 Rank 0)
• NC(Cc1cccc(CN2CCN(c3ccccn3)CC2)n1)C(=O)O (centres unmarked) [Compound 98] = 0 (X < 0 Rank 0)
• NC(Cc1cccc(-c2cccc(N3CC=CCC3)c2)c1)C(=O)O (centres unmarked) [Compound 43] = 0 (X < 0 Rank 0)
• NC(Cc1cccc(CSc2ncccn2)n1)C(=O)O (centres unmarked) [Compound 154] = 1 (0 < X < 10 Rank 1)

---

System: HUVEC
Experiment: Cellular toxicity assay on HUVEC (WST-1 viability)
Format: cell-based, human
Conditions: 24 hours, 10^−5 M, <75% considered toxic
Recorded Viability (%) by entry
Result type: Viability (%)

• O=C(NC(Cc1cccc(CSc2ncnc3[nH]ncc23)n1)C(=O)O)NC(c1ccccc1)c1ccccc1 (stereo not shown) [Compound 65] = 68%
• NC(Cc1cccc(CSc2nc3ccccc3o2)n1)C(=O)O (stereo not shown) [Compound 30] = 112%
• O=C(O)C(Cc1cccc(CSc2nnc[nH]2)n1)NS(=O)(=O)c1ccc(F)cc1 (stereo not shown) [Compound 66] = 114%
• O=C(NC(Cc1cccc(CSc2nnc[nH]2)n1)C(=O)O)NC(c1ccccc1)c1ccccc1 (stereo not shown) [Compound 37] = 50%

---

Each entry below lists one item and its recorded Comparison with the Binding of Phenylalanine value.
Target: L1 transport system (large neutral amino acid carrier, L1-system carrier) (Rattus norvegicus)
Construct: functionality of their endogenous transporters such as the L1-system carrier; endogenous in cells; host or cells: rat primary cerebrovascular (brain microcapillary) endothelial cells, RBEC
Experiment: Competitive binding assay to the brain L1 transport system (L-[U-14C]phenylalanine on rat primary cerebrovascular endothelial cells)
Settings: 10^−4 M
Result type: Comparison with the Binding of Phenylalanine

* NC(Cc1cccc(CSc2nnnn2CC(=O)O)n1)C(=O)O (stereo not shown) [Compound 123] | 0 (X < 0 Rank 0)
* N[C@@H](Cc1ccccc1)C(=O)NC(Cc1cccc(CSc2nnc(-c3ccccc3)o2)c1)C(=O)O (stereo partly shown) [Compound 48] | 0 (X < 0 Rank 0)
* NC(=O)C(Cc1cccc(CSc2nnc(-c3ccncc3)o2)c1)NC(=O)NC(c1ccccc1)c1ccccc1 (stereo not shown) [Compound 55] | 1 (0 < X < 10 Rank 1)
* O=C(Nc1ccc(-c2ccccc2)cc1)NC(Cc1cccc(CSc2nc3ccccc3[nH]2)n1)C(=O)O (stereo not shown) [Compound 62] | 0 (X < 0 Rank 0)

---

Examples of compounds with documented Comparison with the Binding of Phenylalanine follow.
Molecular target: L1 transport system (large neutral amino acid carrier, L1-system carrier) (Rattus norvegicus)
Construct: functionality of their endogenous transporters such as the L1-system carrier; endogenous in cells; host or cells: rat primary cerebrovascular (brain microcapillary) endothelial cells, RBEC
Experiment: Competitive binding assay to the brain L1 transport system (L-[U-14C]phenylalanine on rat primary cerebrovascular endothelial cells)
Details: 10^−6 M
Result type: Comparison with the Binding of Phenylalanine

• NC(Cc1cccc(CSc2nc(-c3ccccc3)c(-c3ccccc3)o2)c1)C(=O)O (stereo not drawn) = 3 (X > 20 Rank 3)
• Cc1ccnc(Sc2cccc(-c3cccc(CC(N)C(=O)O)c3)c2)n1 (stereo not drawn) = 3 (X > 20 Rank 3)
• NC(Cc1cccc(CN2CCN(c3cccc(Cl)c3)CC2)c1)C(=O)O (stereo not drawn) = 1 (0 < X < 10 Rank 1)
• O=C(NC(Cc1cccc(CSc2nnc[nH]2)n1)C(=O)O)NC(c1ccccc1)c1ccccc1 (stereo not drawn) = 2 (10 < X < 20 Rank 2)
• NC(Cc1cccc(-c2cccc(N3CCN(c4ccc(F)cc4)CC3)c2)c1)C(=O)O (stereo not drawn) = 2 (10 < X < 20 Rank 2)
• Cc1ccnc(SCc2ccc(-c3ccc(CC(N)C(=O)O)cc3)cc2)n1 (stereo not drawn) = 2 (10 < X < 20 Rank 2)

---

Item-by-item account of Comparison with the Binding of Phenylalanine
Molecular target: L1 transport system (large neutral amino acid carrier, L1-system carrier) (Rattus norvegicus, UniProt Q63016)
Construct: functionality of their endogenous transporters such as the L1-system carrier; endogenous in cells; host or cells: rat primary cerebrovascular (brain microcapillary) endothelial cells, RBEC
Sequence (Q63016 whole entry): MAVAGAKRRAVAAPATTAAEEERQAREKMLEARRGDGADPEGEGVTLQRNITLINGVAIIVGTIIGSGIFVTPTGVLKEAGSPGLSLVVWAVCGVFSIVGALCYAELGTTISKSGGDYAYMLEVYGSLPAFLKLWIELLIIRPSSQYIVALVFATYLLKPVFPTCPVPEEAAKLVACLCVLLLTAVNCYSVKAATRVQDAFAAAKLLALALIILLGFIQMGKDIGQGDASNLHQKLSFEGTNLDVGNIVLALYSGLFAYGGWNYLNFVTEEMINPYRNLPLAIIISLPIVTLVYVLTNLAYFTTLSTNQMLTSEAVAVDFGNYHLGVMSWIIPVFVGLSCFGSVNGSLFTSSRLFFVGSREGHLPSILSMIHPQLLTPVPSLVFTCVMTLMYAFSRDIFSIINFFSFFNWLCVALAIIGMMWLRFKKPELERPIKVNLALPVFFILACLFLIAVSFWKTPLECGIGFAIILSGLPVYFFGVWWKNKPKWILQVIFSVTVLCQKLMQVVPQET
Sequence (Q794F9 whole entry partner): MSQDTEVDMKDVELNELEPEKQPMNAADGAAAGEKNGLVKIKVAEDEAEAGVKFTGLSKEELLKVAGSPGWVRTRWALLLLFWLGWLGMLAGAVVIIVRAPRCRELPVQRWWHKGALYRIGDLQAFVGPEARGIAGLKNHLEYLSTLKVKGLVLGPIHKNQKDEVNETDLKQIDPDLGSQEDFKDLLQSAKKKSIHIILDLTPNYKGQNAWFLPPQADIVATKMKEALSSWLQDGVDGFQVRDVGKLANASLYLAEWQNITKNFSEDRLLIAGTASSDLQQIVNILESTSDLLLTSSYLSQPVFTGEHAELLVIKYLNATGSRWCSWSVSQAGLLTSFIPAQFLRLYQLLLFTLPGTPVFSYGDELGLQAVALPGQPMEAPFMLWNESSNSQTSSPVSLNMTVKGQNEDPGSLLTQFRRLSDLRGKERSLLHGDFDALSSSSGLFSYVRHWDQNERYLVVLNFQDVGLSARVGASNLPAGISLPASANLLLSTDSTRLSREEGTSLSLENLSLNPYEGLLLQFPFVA
Assay: Competitive binding assay to the brain L1 transport system (L-[U-14C]phenylalanine on rat primary cerebrovascular endothelial cells)
Conditions: 10^−6 M
Result type: Comparison with the Binding of Phenylalanine

- NC(Cc1cccc(CSc2ccnc3cc(C(F)(F)F)ccc23)c1)C(=O)O (centres unmarked): 0 (X < 0 Rank 0)
- N[C@@H](Cc1ccccc1)C(=O)NC(Cc1cccc(CSc2ncc[nH]2)c1)C(=O)O (some centres unmarked): 2 (10 < X < 20 Rank 2)
- NC(Cc1cccc(-c2cccc(Sc3ccc4ccccc4n3)c2)c1)C(=O)O (centres unmarked): 1 (0 < X < 10 Rank 1)
- Nc1ccnc(SCc2cccc(CC(N)C(=O)O)n2)n1 (centres unmarked): 3 (X > 20 Rank 3)
- Cc1nc(SCc2cccc(CC(N)C(=O)O)n2)sc1CC(=O)O (centres unmarked): 1 (0 < X < 10 Rank 1)
- NC(Cc1ccc(-c2ccc(CSc3nc(-c4ccccc4)c(-c4ccccc4)[nH]3)cc2)cc1)C(=O)O (centres unmarked) [Compound 89]: 1 (0 < X < 10 Rank 1)
- NC(Cc1cccc(-c2cccc(N3CC=CCC3)c2)c1)C(=O)O (centres unmarked): 0 (X < 0 Rank 0)
- Cc1nnc(SCc2cccc(CC(N)C(=O)O)c2)s1 (centres unmarked): 0 (X < 0 Rank 0)
- NC(Cc1cccc(CN2CCN(c3ccc(F)cc3)CC2)c1)C(=O)O (centres unmarked): 1 (0 < X < 10 Rank 1)
- NC(Cc1cccc(-c2cccc(N3CCN(c4cccc(Cl)c4)CC3)c2)c1)C(=O)O (centres unmarked): 3 (X > 20 Rank 3)
- N[C@@H](Cc1ccccc1)C(=O)NC(Cc1cccc(CSc2nnnn2-c2ccccc2)c1)C(=O)O (some centres unmarked): 2 (10 < X < 20 Rank 2)
- NC(Cc1cccc(CSc2nnnn2-c2ccccc2)c1)C(=O)O (centres unmarked): 3 (X > 20 Rank 3)
- CN(C)CCn1nnnc1SCc1cccc(CC(N)C(=O)O)n1 (centres unmarked): 1 (0 < X < 10 Rank 1)
- N[C@@H](Cc1ccccc1)C(=O)NC(Cc1cccc(CSc2nnnn2-c2ccc(O)cc2)c1)C(=O)O (some centres unmarked): 2 (10 < X < 20 Rank 2)
- NC(Cc1ccc(-c2ccc(CSc3nc4cc([N+](=O)[O-])ccc4[nH]3)cc2)cc1)C(=O)O (centres unmarked): 1 (0 < X < 10 Rank 1)
- NC(Cc1ccc(-c2ccc(CSc3nnnn3CC(=O)O)cc2)cc1)C(=O)O (centres unmarked): 2 (10 < X < 20 Rank 2)
- NC(Cc1cccc(CSc2nc(-c3ccccc3)c(-c3ccccc3)o2)n1)C(=O)O (centres unmarked): 1 (0 < X < 10 Rank 1)
- Cn1cnnc1SCc1cccc(CC(N)C(=O)O)n1 (centres unmarked): 2 (10 < X < 20 Rank 2)
- NC(Cc1cccc(CN2CCN(c3ccccn3)CC2)n1)C(=O)O (centres unmarked): 0 (X < 0 Rank 0)
- Cn1cnnc1SCc1ccc(-c2ccc(CC(N)C(=O)O)cc2)cc1 (centres unmarked): 2 (10 < X < 20 Rank 2)
- CCOC(=O)c1c[nH]c(Sc2cccc(-c3cccc(CC(N)C(=O)O)c3)c2)nc1=O (centres unmarked): 1 (0 < X < 10 Rank 1)
- NC(Cc1cccc(CSc2nnnn2-c2ccc(O)cc2)c1)C(=O)O (centres unmarked): 3 (X > 20 Rank 3)
- Cn1cnnc1Sc1cccc(-c2cccc(CC(N)C(=O)O)c2)c1 (centres unmarked): 1 (0 < X < 10 Rank 1)
- CN(C)CCn1nnnc1SCc1cccc(CC(N)C(=O)O)c1 (centres unmarked): 1 (0 < X < 10 Rank 1)
- O=C(O)C(Cc1cccc(CSc2ncnc3[nH]ncc23)n1)NS(=O)(=O)c1ccc(F)cc1 (centres unmarked): 0 (X < 0 Rank 0)
- N#CC1(c2ccccc2)CCN(Cc2cccc(CC(N)C(=O)O)c2)CC1 (centres unmarked): 0 (X < 0 Rank 0)
